# MEASUREMENT PROTOCOL: folding stability dG unfold from chymotrypsin proteolysis; higher = more stable
PROPERTY MEASURED: folding stability dG unfold (kcal/mol)
Your answer should be a plain number; it is taken to be in kcal/mol.

[
  {
    "RECORD SEQUENCE": "SAGGSPPYVNISMRRTPNGNMPLKVEIYDKDNEPVAEQEIEIPDMEPGEQWNFTIPIEPNMKLRIESAGGSA [r2_288_TrROS]",
    "PROPERTY MEASURED": "folding stability dG unfold",
    "RECORDED VALUE": 0.456
  },
  {
    "RECORD SEQUENCE": "SAGMKKVKIETTEFREFEGGEREIVMKVYKPDGSEVATVVLPFPPDLSEEEMRERAEAEAKKLAEELGLSAG [r5_697_JUSTAS]",
    "PROPERTY MEASURED": "folding stability dG unfold",
    "RECORDED VALUE": 0.579
  },
  {
    "RECORD SEQUENCE": "SAGGSKGKAPVKVRFLFLEDGKVVAEAEVEFEVEVPIPPVPPVFVPEEARKALENGDIEKALKLLGSAGGSA [r2_196_TrMRF]",
    "PROPERTY MEASURED": "folding stability dG unfold",
    "RECORDED VALUE": 1.58
  }
]

# evaluate next
For reference, reported folding stability dG unfold for SAGGRYYFVRIEIYNPNNGRPFDIMIPFPGMPAEQVKEQVKEIADELAKQHGMDVKVKVEIQPLPPDSAGGS [r8_185_TrROS] stands at 2.06
